Can you tell me EC50 for the items I'm about to list?
Target: NPR-B (Homo sapiens)
Construct: a functional assay using endogenously NPR-B expressing GTM-3 cells; endogenous in cells; host or cells: GTM-3 (transformed human trabecular meshwork cells)
Sequence (P20594 23-1047): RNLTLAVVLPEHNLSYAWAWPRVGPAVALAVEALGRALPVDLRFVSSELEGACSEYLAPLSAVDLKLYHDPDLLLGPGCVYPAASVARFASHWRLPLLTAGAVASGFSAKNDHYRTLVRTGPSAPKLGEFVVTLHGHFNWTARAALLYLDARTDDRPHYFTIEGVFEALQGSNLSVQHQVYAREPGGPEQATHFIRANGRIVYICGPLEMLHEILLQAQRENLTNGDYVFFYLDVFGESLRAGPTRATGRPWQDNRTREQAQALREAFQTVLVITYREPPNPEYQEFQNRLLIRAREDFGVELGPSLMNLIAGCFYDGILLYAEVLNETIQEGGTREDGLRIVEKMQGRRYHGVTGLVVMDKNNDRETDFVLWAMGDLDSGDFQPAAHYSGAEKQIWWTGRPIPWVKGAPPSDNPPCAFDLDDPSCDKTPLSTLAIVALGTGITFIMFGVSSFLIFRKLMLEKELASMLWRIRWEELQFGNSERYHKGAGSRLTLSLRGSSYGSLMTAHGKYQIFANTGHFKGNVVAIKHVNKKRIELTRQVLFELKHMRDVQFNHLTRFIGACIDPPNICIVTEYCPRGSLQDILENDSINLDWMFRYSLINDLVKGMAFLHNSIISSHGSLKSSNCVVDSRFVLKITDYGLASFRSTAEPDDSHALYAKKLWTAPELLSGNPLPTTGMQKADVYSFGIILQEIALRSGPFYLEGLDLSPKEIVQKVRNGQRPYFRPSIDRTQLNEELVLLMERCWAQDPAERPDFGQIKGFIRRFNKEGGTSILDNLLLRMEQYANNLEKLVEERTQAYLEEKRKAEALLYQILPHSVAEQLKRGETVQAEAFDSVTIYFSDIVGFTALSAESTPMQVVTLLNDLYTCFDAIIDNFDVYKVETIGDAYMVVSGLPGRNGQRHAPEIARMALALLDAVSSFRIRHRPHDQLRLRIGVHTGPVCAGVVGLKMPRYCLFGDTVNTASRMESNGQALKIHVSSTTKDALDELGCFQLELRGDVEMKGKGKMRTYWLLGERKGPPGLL
Assay: NPR-B induced production of cyclic GMP in GTM-3 cells
Format: cell-based
Settings: GTM-3 cells; group needs both EC50 and Emax criteria, checked A then B then C; read-out: Activity (group): NPR-B activation, EC50 and Emax (CNP = 100%)
Where a SMILES comes first, the peptide text is derived from it. Bridges are numbered along the chain shown (N, C = ends).

Fill blank: measured EC50 of the compound `CCCC[C@H](N)C(=O)N[C@H]1CSSC[C@@H](C(N)=O)NC(=O)[C@H](CO)NC(=O)[C@H]([C@@H](C)CC)NC(=O)[C@H](CCCNC(=N)N)NC(=O)[C@H](CC(=O)O)NC(=O)[C@H](CC(C)C)NC(=O)[C@H](CCCCN)NC(=O)[C@H](CC(C)C)NC(=O)CNC(=O)[C@H](Cc2ccccc2)NC(=O)[C@H](Cc2c[nH]cn2)NC1=O` is ____.
< 15 µM

EC50 for CC[C@H](C)[C@@H]1NC(=O)[C@H](CCCNC(=N)N)NC(=O)[C@H](CC(=O)O)NC(=O)[C@H](CC(C)C)NC(=O)[C@H](CCCCN)NC(=O)[C@H](C)NC(=O)CNC(=O)[C@H](Cc2ccccc2)NC(=O)[C@H](Cc2c[nH]cn2)NC(=O)[C@@H](NC(=O)[C@@H](N)CCSC)CSSC[C@@H](C(N)=O)NC(=O)[C@H](CO)NC1=O [compound 9] (H-MCHFGAKLDRISC-NH2; disulfide 2-13) ?
< 15 µM

If you can, please state the reported EC50 value of `CCCCCC(=O)N[C@H]1CSSC[C@@H](C(N)=O)NC(=O)[C@H](CO)NC(=O)C2(CCSCC2)NC(=O)[C@H](CCCNC(=N)N)NC(=O)[C@H](CC(=O)O)NC(=O)[C@H](CC(C)C)NC(=O)[C@H](CCCCN)NC(=O)[C@H](CC(C)C)NC(=O)CNC(=O)[C@H](Cc2ccccc2)NC(=O)[C@@H](C)NC1=O` .
< 15 µM
